Values from patent US20230257374A1

- Test name: in vitro
- Test conditions: human, plasma
Recorded endpoint: half-life at 5 μM (min)
Answers are plain numbers, in min.

Please list half-life at 5 μM recorded for the compound "[2H]C([2H])([2H])N1CCC[C@H]1COc1nc2c(c(N3CCN(C(=O)C=C)[C@@H](CC#N)C3)n1)CCN(c1cccc3cccc(Cl)c13)C2" 119

====

- Test name: Stability test in human plasma
- Test conditions: human, plasma
Recorded endpoint: half-life at 5 μM
Note: state the figure and append the unit.

CC(C)[N+](C)(CCOC(=O)C1c2ccccc2Oc2ccccc21)C(C)C [Propantheline Bromide, reference compound] : 0.317 h
[2H]C([2H])([2H])c1cccc2cccc(N3CCc4c(nc(OC[C@@H]5CCCN5C)nc4N4CCN(C(=O)C=C)[C@@H](CC#N)C4)C3)c12 : 2.03 h
[2H]C([2H])([2H])N1CCC[C@H]1COc1nc2c(c(N3CCN(C(=O)C=C)[C@@H](CC#N)C3)n1)CCN(c1cccc3cccc(C)c13)C2 : 2.06 h

Here is another compound to look at.
Please list half-life at 5 μM recorded for the compound "[2H]C([2H])([2H])c1cccc2cccc(N3CCc4c(nc(OC[C@@H]5CCCN5C([2H])([2H])[2H])nc4N4CCN(C(=O)C=C)[C@@H](CC#N)C4)C3)c12" 3.63 h
